Please provide measured z-score for the entries that follow.
Test: CREB reporter modulators without forskolin, primary screen, cell-based, PC12, CRE-LacZ reporter, unstimulated (AID 1145)
Details: no forskolin, luminescence, 4.5 h, higher = more signal, called active from +8 up or from −8 down
Answers are plain numbers.

Known results for compounds:
compound=COC(=O)[C@@H]1CC[C@H](C)[C@@H](c2ccc(C)cc2)N1C(=O)c1ccc(C=NO[C@H](C)c2cn([C@H](CO)Cc3ccccc3)nn2)cc1 number=8.24
compound=O=C1[C@H]2[C@H]3[C@H](O)[C@H](O)CC(=NOC[C@@H](O)COCc4ccco4)[C@@H]3CC[C@H]2C(=O)N1C[C@@H]1CCCO1 number=-0.207
compound=C#CCCCON=C1C[C@@H](O)[C@@H](O)[C@@H]2[C@@H]3C(=O)N(Cc4ccccc4)C(=O)[C@@H]3CC[C@@H]12 number=-0.476
compound=C[C@H]1Cc2c(COc3ccccc3)nc3c(c2CO1)CN(CCOc1ccccc1)CC3 number=3.54
compound=O=C1C[C@@H](O)[C@@H](O)[C@@H]2[C@@H]3C(=O)N(C[C@@H]4CCCO4)C(=O)[C@@H]3CC[C@@H]12 number=0.246
compound=O=C1[C@H]2[C@H]3[C@H](O)[C@H](O)CC(=NOCc4ccccc4)[C@H]3CC[C@H]2C(=O)N1Cc1ccc2c(c1)OCO2 number=-0.203

Go through the list and state z-score for each entry.
1. COc1ccc(O[C@H]2C=C[C@@H](c3ccccc3)O[C@@H]2CON=C2[C@H]3CCn4c(=O)n(-c5ccccc5)c(=O)n4[C@H]3[C@H](O)[C@@H]3O[C@H]23)cc1
2. CON=C1[C@H]2CCn3c(=O)n(-c4ccccc4)c(=O)n3[C@H]2[C@H](O)[C@@H]2O[C@H]12
3. COCCNC(=O)OCC1CCCC2(CC(OC(=O)NCc3ccc4c(c3)OCO4)CC(CCC(=O)N[C@@H](C)C(=O)OC)O2)O1 (stereo not given in full)
4. CCOC(=O)[C@H](CC(C)C)NC(=O)CCC1CC(OC(=O)NCc2cccc3ccccc23)CC2(CCCC(COC(=O)NCc3ccncc3)O2)O1 (stereo not given in full)
5. CCOC(=O)[C@H](Cc1ccccc1)NC(=O)CCC1CC(OC(=O)NCCc2ccc(F)cc2)CC2(CCCC(COC(=O)NCCc3ccccc3OC)O2)O1 (stereo not given in full)

**A:**
[0.834, 1.55, -0.0755, 0.562, 0.198]

Go through the list and state z-score for each entry.
1. C#CCCCON=C1[C@H]2CCn3c(=O)n(-c4ccccc4)c(=O)n3[C@H]2[C@H](O)[C@@H]2O[C@H]12
2. COc1ccc(O[C@@H]2[C@H](O)CO[C@H]2C=Cc2ccccc2)cc1
3. CC(C)=CCCC(C)=CCON=C1C[C@@H](O)[C@@H](O)[C@@H]2[C@@H]3C(=O)N(c4ccc(F)cc4F)C(=O)[C@@H]3CC[C@H]12
4. CC(CCN1CCCc2nc(C)c(C)cc21)=NO[C@@H](C)c1cc(-c2c(C)cc(C)cc2C)no1
5. CCOC(=O)[C@H](CC(C)C)NC(=O)CCC1CC(OC(=O)NCc2cccc3ccccc23)CC2(CCCC(COC(=O)NCc3cccc(C(F)(F)F)c3)O2)O1 (stereo not given in full)
6. CCOC(=O)[C@H](CC(C)C)NC(=O)CCC1CC(OC(=O)NCc2cccc3ccccc23)CC2(CCCC(COC(=O)NCCOC)O2)O1 (stereo not given in full)
7. CO[C@H]1COC(=O)[C@@H](C)COC(=O)[C@@H](OCc2ccccc2)C=C[C@@H]1C
8. CO[C@H](C1CCCCC1)[C@H](C)C=CCC(=O)OCCCc1ccccc1

**A:**
1: -0.112; 2: 0.284; 3: -1.2; 4: -0.0591; 5: 0.288; 6: -0.526; 7: -0.0293; 8: 0.248

Go through the list and state z-score for each entry.
1. COc1cc(O)c(C(=O)C=Cc2ccc3c(c2)OCO3)c(OC)c1
2. COC(=O)[C@H](C)NC(=O)CCC1CC(OC(=O)NCc2ccc3c(c2)OCO3)CC2(CCCC(COC(=O)NCc3cccc(C(F)(F)F)c3)O2)O1 (stereo not given in full)
3. COc1ccc(O[C@H]2C=C[C@@H](c3ccccc3)O[C@@H]2CON=C(C)C)cc1
4. CCC1=NOC(CCC2CC(OC(=O)NCc3cccc4c3OCO4)CC3(CCCC(COC(=O)NCCc4ccccc4OC)O3)O2)C1 (stereo not given)
5. C=COC[C@@H]1CN2[C@@H](CC[C@@H](C)[C@@H]2c2ccc(Br)cc2)C(=O)O1

**A:**
[0.286, -0.794, 0.113, 1.46, 6.83]

###

Experiment: binders of probe aFGF10 on microarray, primary screen, stem cell growth factor project, biochemical, small-molecule microarray, fluorescence 635/667 (AID 1071);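 further: score merges 667 nm spot intensity and signal to noise from triplicate slides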
Conditions: higher = more signal
reported metric: composite z-score
One number for each entry.

compound=C[C@@H](c1ccccc1)N1C(=O)[C@H]2[C@H]3[C@H](O)[C@H](O)CC(=NO[C@@H]4O[C@H](CO)[C@@H](O)[C@H](O)[C@H]4O)[C@@H]3CC[C@H]2C1=O reported_metric="composite z-score" number=0.306

Go through the list and state composite z-score for each entry.
1. CC(C)CCN1CCc2nc(COc3ccccc3)c3c(c2C1)CO[C@@H](C)C3
2. CCOC(=O)NN=C1C[C@@H](O)[C@@H](O)[C@@H]2[C@@H]3C(=O)N(C(C)(C)C)C(=O)[C@@H]3CC[C@H]12
3. CCOC(=O)[C@H](Cc1ccccc1)NC(=O)CCC1CC(OC(=O)NCCc2ccc(F)cc2)CC2(CCCC(COC(=O)NCCOC)O2)O1 (stereo partly specified)

**A:**
1: 0.0995; 2: 0.255; 3: 0.868

Go through the list and state composite z-score for each entry.
1. COC(=O)CC=C[C@@H](C)[C@@H](C=NOC(C)CN1CCCc2nc(C)c(C)cc21)OC (stereo partly specified)
2. CO[C@H]1COC(=O)CC=C[C@H](C)[C@@H](OC)COC(=O)[C@H](C)COC(=O)CC=C[C@@H]1C
3. O=C1C[C@@H](O)[C@@H](O)[C@@H]2[C@@H]3C(=O)N(Cc4ccc5c(c4)OCO5)C(=O)[C@@H]3CC[C@H]12
4. C[C@@H](ON=C1[C@H]2CCn3c(=O)n(-c4ccccc4)c(=O)n3[C@H]2[C@H](O)[C@@H]2O[C@H]12)c1cn([C@@H]2COC[C@H]2O)nn1
5. COC(=O)CC=C[C@@H](C)[C@@H](C=NO[C@@H](C)c1cn([C@H](CO)Cc2ccccc2)nn1)NS(=O)(=O)c1ccc(C)cc1
6. CCN1C(=O)[C@H]2[C@H]3[C@H](O)[C@H](O)CC(=NOCC(C)C)[C@@H]3CC[C@H]2C1=O

**A:**
1: 0.354; 2: -0.562; 3: 0.477; 4: 0.35; 5: 0.166; 6: 0.361

Go through the list and state composite z-score for each entry.
1. CCC=CCCC(OC(=O)c1ccc(Br)cc1)C1=CCCCC1=O (stereo unspecified)
2. CCOC(=O)[C@H](CC(C)C)NC(=O)CCC1CC(OC(=O)NCc2cccc3ccccc23)CC2(CCCC(COC(=O)NCCCN3CCCC3=O)O2)O1 (stereo partly specified)

**A:**
-0.0363
0.208

###

Experiment: S. cerevisiae RM11-1a growth modifiers, primary screen, strain RM11-1a, OD600, basal, 24 h (AID 1177);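 further: cultures grown under basal conditions with no added stressor; test concentration not given here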
Conditions: OD600, 24 h, higher = more signal, called active from +8 up or from −8 down
Lab note: compare z-score against -0.5. Equal or greater, write true. Smaller, write false.

smiles_str=C=CC[C@@H]1C=C[C@H](ON=C2[C@H]3CCn4c(=O)n(-c5ccccc5)c(=O)n4[C@H]3[C@H](O)[C@@H]3O[C@H]23)[C@@H](CO)O1 label_value=true
smiles_str=CCCCC#C[C@@H]1C=C[C@H](Oc2cc(OC)c(OC)c(OC)c2)[C@@H](COC(=O)OCC)O1 label_value=true
smiles_str=O=C1[C@H]2[C@H]3[C@H](O)[C@H](O)CC(=NOCc4ccccc4)[C@@H]3CC[C@H]2C(=O)N1C[C@@H]1CCCO1 label_value=true
smiles_str=C=Cc1ccc([C@H]2N[C@H](C(=O)O)CC[C@@H]2C)cc1 label_value=false

**Q:** Decide: z-score of `O=C1[C@H]2[C@H]3[C@H](O)[C@H](O)CC(=NOCc4ccccc4)[C@@H]3CC[C@H]2C(=O)N1c1ccc(F)cc1F` >= -0.5?
**A:** false

**Q:** Decide: z-score of `COc1ccc(COC(=O)NN=C2C[C@@H](O)[C@@H](O)[C@@H]3[C@@H]4C(=O)N(c5ccc(F)cc5F)C(=O)[C@@H]4CC[C@H]23)cc1` >= -0.5?
**A:** true

Source: PubChem BioAssay
